These measurements were taken from patent US20230406921A1.

# STUDY_TARGET: T1, recombinant antigen of the extracellular region of CD47 (Sino Biological, Cat: 12283-H08H) (human, UniProt Q08722 19-139)
# T1 construct: extracellular domain; also called recombinant CD47 extracellular region; CD47 recombinant protein
# T1 sequence (Q08722 19-139 limits assumed): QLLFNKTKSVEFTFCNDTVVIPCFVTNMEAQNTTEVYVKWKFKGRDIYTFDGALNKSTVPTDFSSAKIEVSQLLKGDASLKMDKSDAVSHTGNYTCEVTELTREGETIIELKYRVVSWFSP
# PROTOCOL: Fortebio BLI, recombinant CD47 extracellular region
QUANTITY: koff (s⁻¹)
Give a bare numeral; the unit s⁻¹ is implied.

Below, 6 binders whose answers are already recorded.
>>> reading("140Hm10/hz140L (Table 2) (antibody, V domains shown, also called hz140-Hm/hz140L) VH: QVQLVQSGAEVKKPGASVKVSCKASGYKFTNYVMSWVRQAPGQRLEWMGYINPYNDAIKYNEKFTGRVTITRDTSASTAYMELSSLRSEDTAVYYCAREGDFYANYGRLGFAYWGQGTLVTVSS VL: DIQMTQSPSSLSASVGDRVTITCRASQDITNYLNWYQQKPGKAPKLLIYYTSRLHSGVPSRFSGSGSGTDYTFTISSLQPEDIATYFCQQGDTFPRTFGGGTKVEIK")
0.00202
>>> reading("140Hm6/hz140L (Table 2) (antibody, V domains shown, also called hz140-Hm/hz140L) VH: QVQLVQSGAEVKKPGASVKVSCKASGYKFTNYVMHWVRQAPGQRLEWMGYINPYNDGIKYNEKFQGRVTITRDTSASTAYMELSSLRSEDTAVYYCAREGDFYANYGRLGFAYWGQGTLVTVSS VL: DIQMTQSPSSLSASVGDRVTITCRASQDITNYLNWYQQKPGKAPKLLIYYTSRLHSGVPSRFSGSGSGTDYTFTISSLQPEDIATYFCQQGDTFPRTFGGGTKVEIK")
0.00707
>>> reading("140Hm3/hz140L (Table 2) (antibody, V domains shown, also called hz140-Hm/hz140L) VH: QVQLVQSGAEVKKPGASVKVSCKASGYKFTNYVMSWVRQAPGQRLEWMGYINPYNDGIKYNEKFTGRVTITRDTSASTAYMELSSLRSEDTAVYYCAREGDFYANYGRLGFAYWGQGTLVTVSS VL: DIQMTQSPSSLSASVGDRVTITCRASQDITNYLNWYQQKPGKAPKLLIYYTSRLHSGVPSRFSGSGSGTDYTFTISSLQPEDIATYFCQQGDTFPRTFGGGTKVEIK")
0.00103
>>> reading("humanized 140 (hz140) (antibody, human IgG4 S228P, kappa, V domains shown, also called anti-CD47 monoclonal antibody; anti-CD47 sidearm monoclonal antibody) VH: QVQLVQSGAEVKKPGASVKVSCKASGYKFTNYVMHWVRQAPGQRLEWMGYINPYNDGIKYNEKFTGRVTITRDTSASTAYMELSSLRSEDTAVYYCAREGDFYANYGRLGFAYWGQGTLVTVSS VL: DIQMTQSPSSLSASVGDRVTITCRASQDITNYLNWYQQKPGKAPKLLIYYTSRLHSGVPSRFSGSGSGTDYTFTISSLQPEDIATYFCQQGDTFPRTFGGGTKVEIKR")
0.00022
>>> reading("140Hm4/hz140L (Table 2) (antibody, V domains shown, also called hz140-Hm/hz140L) VH: QVQLVQSGAEVKKPGASVKVSCKASGYKFTNYVMHWVRQAPGQRLEWMGWINPYNDGIKYNEKFTGRVTITRDTSASTAYMELSSLRSEDTAVYYCAREGDFYANYGRLGFAYWGQGTLVTVSS VL: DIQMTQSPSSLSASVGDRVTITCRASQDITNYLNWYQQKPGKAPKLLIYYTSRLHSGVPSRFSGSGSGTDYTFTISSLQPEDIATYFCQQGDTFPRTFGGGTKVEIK")
0.00216
>>> reading("140Hm8/hz140L (Table 2) (antibody, V domains shown, also called hz140-Hm/hz140L) VH: QVQLVQSGAEVKKPGASVKVSCKASGYKFTNYVMHWVRQAPGQRLEWMGYINPYNDAIKYNEKFTGRVTITRDTSASTAYMELSSLRSEDTAVYYCAREGDFYANYGRLGFAYWGQGTLVTVSS VL: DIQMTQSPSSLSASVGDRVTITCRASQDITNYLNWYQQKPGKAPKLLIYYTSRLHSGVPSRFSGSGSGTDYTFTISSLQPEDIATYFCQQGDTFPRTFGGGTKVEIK")
0.00094

Below: the item to evaluate.
Record 140Hm7/hz140L (Table 2) (antibody, V domains shown, also called hz140-Hm/hz140L) VH: QVQLVQSGAEVKKPGASVKVSCKASGYKFTNYVMHWVRQAPGQRLEWMGYINPYNDGIKYNEKFTGRVTITRDTSASTAYMELSSLRSEDTAVYYCAREGDFYANYGRLGFDYWGQGTLVTVSS VL: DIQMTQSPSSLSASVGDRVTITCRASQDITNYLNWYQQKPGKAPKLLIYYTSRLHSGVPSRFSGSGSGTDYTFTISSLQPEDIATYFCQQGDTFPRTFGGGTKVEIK , field koff: 0.0131
